Tested on: L1210
Experiment: Inhibition of [3H]thymidine uptake in L1210 cells at 10 uM
Format: functional
Details: Mus musculus
I would appreciate it if you labelled entries Yes when inhibition at 10 µM is 60% or higher, otherwise No.

| Molecule | Assay system | Class |
| --- | --- | --- |
| CC1(C)OC[C@@H](COc2nc(N3CCCCC3)c3nc(OC[C@@H]4COC(C)(C)O4)nc(N4CCCCC4)c3n2)O1 | L1210 | Yes |
| COc1ccc(CNc2nc(N(CCO)CCO)nc3c(NCc4ccc(OC)c(OC)c4)nc(N(CCO)CCO)nc23)cc1OC | L1210 | Yes |
| COCCN(CCOC)c1nc(N2CCCCC2)c2nc(N(CCOC)CCOC)nc(N3CCCCC3)c2n1 | L1210 | Yes |
| COc1ccc(CNc2nc(OCCO)nc3c(NCc4ccc(OC)cc4)nc(OCCO)nc23)cc1 | L1210 | Yes |
| COCCOc1nc(N(Cc2ccccc2)Cc2ccccc2)c2nc(OCCOC)nc(N(Cc3ccccc3)Cc3ccccc3)c2n1 | L1210 | No |
| CC(C)Oc1nc(N2CCCCC2)c2nc(OC(C)C)nc(N3CCCCC3)c2n1 | L1210 | No |
| OCCN(CCO)c1nc(N2CCc3ccccc3C2)c2nc(N(CCO)CCO)nc(N3CCc4ccccc4C3)c2n1 | L1210 | Yes |
| OCC(O)CNc1nc(N2CCCCC2)c2nc(NCC(O)CO)nc(N3CCCCC3)c2n1 (stereo not given) | L1210 | No |
| CN(Cc1ccccc1)c1nc(OCCO)nc2c(N(C)Cc3ccccc3)nc(OCCO)nc12 | L1210 | Yes |
| COc1ccc(CN(C)c2nc(NCCO)nc3c(N(C)Cc4ccc(OC)c(OC)c4)nc(NCCO)nc23)cc1OC | L1210 | Yes |
| OCCN(CCO)c1nc(N2CCCC(O)C2)c2nc(N(CCO)CCO)nc(N3CCCC(O)C3)c2n1 (stereo not given) | L1210 | No |
| COCCOc1nc(N2CCCCC2)c2nc(OCCOC)nc(N3CCCCC3)c2n1 | L1210 | Yes |
| CC(O)CNc1nc(NCc2ccc3c(c2)OCO3)c2nc(NCC(C)O)nc(NCc3ccc4c(c3)OCO4)c2n1 (stereo not given) | L1210 | Yes |
| COCCOc1nc(NCc2ccccc2)c2nc(OCCOC)nc(NCc3ccccc3)c2n1 | L1210 | Yes |

###

System: L1210
Assay: Inhibition of [3H]thymidine uptake in L1210 cells
Format: functional, cell-based
Conditions: Mus musculus
pIC50: −log10 of the molar value.
Quantity: pIC50

| Compound | Endpoint result |
| --- | --- |
| OCCNc1nc(NCc2ccccc2)c2nc(NCCO)nc(NCc3ccccc3)c2n1 | 6.12 |
| OCCN(CCO)c1nc(N2CCc3ccccc3C2)c2nc(N(CCO)CCO)nc(N3CCc4ccccc4C3)c2n1 | 6.14 |
| COc1ccc(CNc2nc(NCCO)nc3c(NCc4ccc(OC)cc4)nc(NCCO)nc23)cc1 | 6.03 |
| OCC(O)COc1nc(N2CCCCC2)c2nc(OC[C@@H](O)CO)nc(N3CCCCC3)c2n1 (some centres undefined) | 5.06 |
| COCCOc1nc(N(C)Cc2ccccc2)c2nc(OCCOC)nc(N(C)Cc3ccccc3)c2n1 | 5.42 |
| CN(Cc1ccccc1)c1nc(OCCO)nc2c(N(C)Cc3ccccc3)nc(OCCO)nc12 | 6.10 |
| OCCN(CCO)c1nc(NCc2ccc(Cl)cc2)c2nc(N(CCO)CCO)nc(NCc3ccc(Cl)cc3)c2n1 | 5.96 |
| CC(O)CNc1nc(NCc2ccccc2)c2nc(NCC(C)O)nc(NCc3ccccc3)c2n1 (centres undefined) | 5.52 |
| OCC(O)CNc1nc(N2CCCCC2)c2nc(NCC(O)CO)nc(N3CCCCC3)c2n1 (centres undefined) | 5.43 |
| COCCOc1nc(NCc2ccccc2)c2nc(OCCOC)nc(NCc3ccccc3)c2n1 | 5.62 |
| COCCN(CCOC)c1nc(N2CCCCC2)c2nc(N(CCOC)CCOC)nc(N3CCCCC3)c2n1 | 5.68 |
| C[C@H](O)COc1nc(N2CCCCC2)c2nc(OC[C@@H](C)O)nc(N3CCCCC3)c2n1 | 6.05 |
| COc1ccc(CN(C)c2nc(OCCCO)nc3c(N(C)Cc4ccc(OC)cc4)nc(OCCCO)nc23)cc1 | 6.66 |
| COCCOc1nc(N2CCCCC2)c2nc(OCCOC)nc(N3CCCCC3)c2n1 | 5.34 |
| OCCN(CCO)c1nc(NCc2ccccc2)c2nc(N(CCO)CCO)nc(NCc3ccccc3)c2n1 | 6.22 |
| CC1(C)OC[C@H](COc2nc(N3CCCCC3)c3nc(OC[C@H]4COC(C)(C)O4)nc(N4CCCCC4)c3n2)O1 | 5.96 |
| COc1ccc(CN(C)c2nc(OCCO)nc3c(N(C)Cc4ccc(OC)cc4)nc(OCCO)nc23)cc1 | 6.37 |
| CC(O)CNc1nc(N(C)Cc2ccccc2)c2nc(NCC(C)O)nc(N(C)Cc3ccccc3)c2n1 (centres undefined) | 6.15 |
| COc1ccc(CNc2nc(OCCO)nc3c(NCc4ccc(OC)cc4)nc(OCCO)nc23)cc1 | 6.17 |
